# target_desc: full-length beta-Catenin (Uniprot ID P35222) (Homo sapiens (Human)) (UniProt P35222)
# protocol_summary: fluorescence polarization competition; full-length beta-catenin, competitor 5FAM-TCF4(10-53) probe
Starred links: 1 amine or outer side, 2 acyl side, 3 side chain; linkers in the order of their positions; H or OH if unused. Positions of bridges follow the written chain, without caps; N, C: chain ends. Non-standard residues stand in square brackets, D forms with d. Primed or numbered codes have the meaning given here. PyrS2″ = (S)-3-amino-1-((pent-4-en-1-yloxy)carbonyl)pyrrolidine-3-carboxylic acid (stapling residue), C=CCCCOC(=O)N1CC[C@@](N[*:1])(C(=O)[*:2])C1; B5(4) = 2,2-bis(4-pentenyl)glycine = 2-amino-2-(pent-4-en-1-yl)hept-6-enoic acid (stitching residue), C=CCCCC(CCCC=C)(N[*:1])C(=O)[*:2]; B5(5) = 2,2-bis(4-pentenyl)glycine, 2-amino-2-(pent-4-en-1-yl)hept-6-enoic acid (stitching residue), C=CCCCC(CCCC=C)(N[*:1])C(=O)[*:2]; B5(31) = 2-amino-2-(pent-4-en-1-yl)hept-6-enoic acid (bis-pentenylglycine, stitching residue), C=CCCCC(CCCC=C)(N[*:1])C(=O)[*:2]; PyrS2 = (S)-3-amino-1-((pent-4-en-1-yloxy)carbonyl)pyrrolidine-3-carboxylic acid, C=CCCCOC(=O)N1CC[C@@](N[*:1])(C(=O)[*:2])C1; Phe(4-Me) = Cc1ccc(C[C@H](N)C(=O)O)cc1; Bta = N[C@@H](Cc1csc2ccccc12)C(=O)O; αAllylPro = C=CC[C@@]1(C(=O)O)CCCN1; tBuAla = CC(C)(C)C[C@H](N)C(=O)O; 3Thi = N[C@@H](Cc1ccsc1)C(=O)O; Cha = N[C@@H](CC1CCCCC1)C(=O)O; S8 = C=CCCCCCC[C@](C)(N)C(=O)O; hSer = N[C@@H](CCO)C(=O)O; Aib = CC(C)(N)C(=O)O
Binning rule for recorded IC50: I = under 200 nM, II = from 200 nM up to 700 nM, III = 700 nM and over

Inquiry: Which bin should I file Ac-[αAllylPro]D[tBuAla][B5(4)]DFAAFL[PyrS2″][3Thi][Bta]Q-NH2 (staple 1-4, 4-11) [I-1441] under?
Reply text: II

Inquiry: Which bin should I file Ac-[αAllylPro]D[tBuAla][B5(5)]NT[Aib]AFL[PyrS2][3Thi][Bta]Q-NH2 (staple 1-4, 4-11) [I-2408] under?
Reply text: III

Inquiry: Which bin should I file Ac-[αAllylPro]DA[B5(4)]DEAA[Phe(4-Me)]N[S8]F[Bta]Q-NH2 (staple 1-4, 4-11) [I-459] under?
Reply text: I

Inquiry: Which bin should I file Ac-[αAllylPro]N[Cha][B5(5)]DQSAFL[PyrS2″]F[Bta]K-NH2 (staple 1-4, 4-11) [I-2422] under?
Reply text: III

Inquiry: Which bin should I file Ac-[αAllylPro]D[tBuAla][B5(5)]NT[Aib]AFN[PyrS2″][3Thi][Bta]A-NH2 (staple 1-4, 4-11) [I-2411] under?
Reply text: I

Inquiry: Which bin should I file Ac-[αAllylPro]D[tBuAla][B5(31)]NTAAFT[PyrS2″][3Thi][Bta]A-NH2 (staple 1-4, 4-11) [I-2334] under?
Reply text: II

Inquiry: Which bin should I file Ac-[αAllylPro]DL[B5(5)]DEAAFN[S8]F[Bta]Q[Aib]-NH2 (staple 1-4, 4-11; also: later-eluting staple isomer) [I-737] under?
Reply text: II

Inquiry: Which bin should I file Ac-[αAllylPro][hSer][tBuAla][B5(5)]DQAAFH[PyrS2″]F[Bta]Q-NH2 (staple 1-4, 4-11) [I-2439] under?
Reply text: III

Inquiry: Which bin should I file Ac-[αAllylPro]D[Cha][B5(4)]DTAAFL[PyrS2″][3Thi][Bta]Q-NH2 (staple 1-4, 4-11) [I-1174] under?
Reply text: I

Inquiry: Which bin should I file Ac-[αAllylPro]D[tBuAla][B5(5)]NT[Aib]AFN[PyrS2″][3Thi][Bta]T-NH2 (staple 1-4, 4-11) [I-2416] under?
Reply text: I
